system: K4 kissing-loop RNA reporter; test: apparent KD of K4 kissing-loop reporter; higher = weaker reporter binding; settings: Eterna round: R107; input ligand: theophylline 20 uM
Value kind: apparent KD of K4 kissing-loop reporter (nM)

GGUGACAACCAGAGGUGAUGUAUAGAAUCGCGAGGACCGGUACGGCCGCCACUCGUGAAGAGAAAGGAGUGAUGUUCCGUAAUGG [Kazoo C6]
364
UGAUAGGACAGAAGGAGCGGGAGUGAUGUUCCCAAAAGGGUAAGGUGUCAAAAGACACCCUUCCAGGUAGGUCGCUGUCCUAUCU
102
UUUGUAGUGGGAGGAUAUCCUAAUAUGGGUGAUGUUAGCGAUGUUGAAGGUGUAGUGAUGUUAUGCGGAGAAGGCCCACUGUAGA [BDazzled - #20 - Exc. FMN B]
614
CCGUGGAGUGAUGUUCCACGUUCUACGGAUACCAGCCACGCCAGCGGCCCUUGGCAGCCGCACCUUGCAGUGAUGUUGUGAGGCU [Same State Theophylline A GF 5]
330
UCACUCAUGUGAAGGAGCGUGAGAAGACAUGAGUGAUGUUCAUGUCUAGACCAGCGUCUCUCACAGGUAGGUCGCACAUGAAAGG [Arg B SS t10]
100
AAGUCAUAUAGAAGGAGCGUGUUUUUUAAUUUAUUUUCAUGAUCGAGUGAUGUUCGAUAUACACAGGUAGGUCGCUGUAUAAUAA [hbob_SS_Arginine_B_2t141]
179
AUUUUUUUAUCAGGAUAUUAGUGAUGGUUGUUUUUGUUAGUGAUGUUGAUAUUUGUUUUAUGUAUUUAAGAAGGGAUUGAGAUGU [zbbzmullin]
31.7
GGGAGUAGUGCGGCCGCCACUGAGAAAGAAGAAGAAUAUAGUGAUGUUAUAUAGGAAAGGAAGAAUAGGACCGGGCAUUAGAUUU [SSTRyptB.J]
238
CAUUCACGGCGAGUCGAAGUGAUGUUUCGGCGAGGACCGGUACGGCCGCCACUCGGAUAAAUAUAGCUUAUCACAUACACUUUCG [theeternabot_exclusion_KL_Trp_A_27]
186
CGGAGUCGCGGAAGGAGCGCUCGAUAGACAAGUUGAUCGUGCCGUGGUCGAGUGAUGUUCGAGCAGGUAGGUCGCCGUCGGUCCC [Cexeatedma]
229
GAGGUAUGCGCAGUGAUGUUGCGACGAGAUACCAGUCGUUCUGUCGACCCUUGGCAGCUCCCACCAGACGUACGAGUUUGUGUUG [theeternabot_sameState_KL_Theo_A_10]
113
GUAUGUGGAAACACGUACUUAUAUCCUAGGCAGGAUAUGCGGAAACGCAGAAGGGCCACCGGCGAGUUUAUCCAGUGAUGUUGGA [Ex FMN A 8]
271
GUAUAUCGAGUGAUGUUCGAAUGCUCCGAAGGAGCGCGGAUAAUCGCAGGUAGGUCGCGGAGCAGUUGCUGAGGAAGCUCAGUAU [Arg A SS t11]
211
CUUGUACAUGCCGAGGUAGGUGCGGGUUAGCGAGGACCGGUACGGCCGCCACUCGCCAAGUGAUGUUUGGUCCUUUGGAUCGGCA
690
GUAGCACUUGAUAGUGAUGUUAUCAAGGGCAAGGAUAUCAUCUCAAUGAGAAGGUGUCCUUGAUAACUGCUACGGGAAUAUCCCA [Omei KL FMN A Exc D v6]
86
UGUCAUUGGUCGGCCGCCACUUGAAGGUCAAAGACCAUAGAGUGAUGUUCUAAGACGAAAGUCACAAGGACCGGGACCGAUGACU [TrypBS 3 #SwitchBubble #K4Middle]
265
UGACAUUGCUCAGAUACCAGACAUGAGCAUCAGCCAUGUGCCAAAACGUACUAAAUAAAUGUCCCUUGGCAGCUGAGCAAUGUCU [TheoBX 13]
73.3
GAUCAUAGCACGGCCGCCACUGAUAUGCCGUGCUAUACGAGUGAUGUUCGUAAUUAUACGGGUAUCAGGACCGGGUGCAACGGUA [Tryp B SS t2]
167
GUUUGCCGGUCCCGGAGUGAUGUUCCGGAUACCAGCAACUUCCUUUGCCCUUGGCAGCCGUAGCUAUACCGGGUGGCAGCUUCAG [Anresoenus]
110
CGUUUAUAGCAGGAUACCAGUACCGAUAAAGUACGUUAAUAGUAGAGUGAUGUUCUAAAGUACCCUUGGCAGCUUAGAGUGAGUG [ExTheophylB.P]
162
GAUCUGAACGAAAGUUCGGAUCAGUCCGAUACCAGUAUGGAUUCAUACCCUUGGCAGCGGUUAUCUGCUAUGGAGUGAUGUUCCA [Theophylline A K4 11]
321
AAAGAUGCGUCGGCCGCCACUGUGAUCUACGAAAGUAGUAUGUAGAUGCAGUGAUGUUGCAUUUUCAGGACCGGGACGUAAGAUG [3rd]
496
UGACUGGAUGGAAGGAGCGCUAAACUCCUAGUGAUGUUAGGGAAAUGAGGCAAAGCCUCGAGGCAGGUAGGUCGCCAUCUAGUCU [FiskerMod 18 - Jieux - Same State - Arginine B]
148
GGCACGGUAACGCAACCGCCGUGCGCUUGGGAGGAUAUGUUUCGUGACAGAAGGCCCAGUGAUGUUGGGUCUGUUCAAAAGGACU [Ceenerus]
122

----------
test system: MS2 coat protein; experiment: apparent KD of MS2 coat protein; designed switch direction (-1 OFF switch, 1 ON switch): -1; higher = weaker reporter binding; settings: input ligand: FMN 200 uM
The following sequences are shown together with reported apparent KD of MS2 coat protein values.
Value kind: apparent KD of MS2 coat protein (nM)

CAGAGCUUUUACUCGUCUUACAUGAGGAUCACCCAUGUCUCCUAGUGGGUAAAAUAUUAAGAAGAAAUUCUUAAUAA [jun14#1] (Eterna round: R97, puzzle: Sensor, turn-off variant 1)
125
AAUAACAAGCUGAUCCUCCACAUGAGGAUCACCCAUGUGUUCGUCUUGUAAAGUACUAUCACGAAAGUGAUAGUACA (Eterna round: R97, puzzle: Sensor, turn-off variant 1)
984
CCCGCAGGCUUUUUGCUCGACAUGAGGAUCACCCAUGUUGAAUGGGUUGUGUGUGUGUGAUACAUAUAUAUGGUCCU [-26.2, -50.8 kcal, A 19%] (Eterna round: R97, puzzle: Sensor, turn-off variant 1)
242
AGACGAUCGUAGGAUAUCGGAAGGUCACUGGACUGAGAAGGACGAACAUGAGGAUCACCCAUGUGAUCUCUGGU [Eternabot (L2) Solution 43] (Eterna round: R97, puzzle: Exclusion 6)
779
GCAGCUAAUGCAGGAUAUCAGCACGAUUAGUGCUGAGAAGGGCACAUGAGGAUCACCCAUGUGAUCAAUUAAUAUUAAUGCUGC [ENG1/11-B1] (Eterna round: R96, puzzle: Exclusion NG 1)
184
AGUUGGCGAGGAUAUACAUGAGGAUCACCCAUGUGAUAUUAAAGUGAGGAAAUGAAAAGUAGAAGGCGCUGACA [Mod of Mat 24 - Jieux - Exclusion 3] (Eterna round: R97, puzzle: Exclusion 3)
662
ACAGUACUGCAAGGAUAUCGUUCUAGUUUAUUACGAGAAGGUGCUUUAGUUAUUUCUUUGUGUUGACAUGAGGAUCACCCAUGU [JR_ExcNG1_Sub055] (Eterna round: R96, puzzle: Exclusion NG 1)
18.9
GACAGGCAGGCAGGAUAUGCCCGUGUGGAUGGUGUAGAAGGGCUAGCGGGUCACUUGAGGAUCACCCAAGUGGAGGGUGGCCUA [Mutated MS2 EX1.28] (Eterna round: R96, puzzle: Exclusion NG 1)
51.3
AAAUAAACAAGCAACUCGAACAUGAGGAUCACCCAUGUAAAGGGUGAAUCGUCCACCCAAAAAAAAAAUAAAAAAAA [Mat - Sensor v2 - Eli mod - 132] (Eterna round: R96, puzzle: Sensor v2, turn-off variant)
57.7

----------
apparent KD of K4 kissing-loop reporter overview
tested on: K4 kissing-loop RNA reporter; experiment: apparent KD of K4 kissing-loop reporter; higher = weaker reporter binding; conditions: Eterna round: R107; input ligand: FMN 200 uM;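 further: bound reporter read as fluorescence of individual clusters on recovered sequencing chips by microscopy, with normalized cluster intensities fitted with a binding model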
Value kind: apparent KD of K4 kissing-loop reporter (nM)

UGAUAGGACAGAAGGAGCGGGAGUGAUGUUCCCAAAAGGGUAAGGUGUCAAAAGACACCCUUCCAGGUAGGUCGCUGUCCUAUCU
97.7
ACACUAUCGUCAUAGACGGUAGUGAAAUGUGAGGAUAUGAGUGAUGUUAGAAGGCACAAAGACUGUAUCGAAUAGAUACAGUCAA [FmnA 6 #K4BetweenAptamer #OpenEnded]
558
GCCGCCGCGGCAGGAUAUAGACAUUGAGUGAUGUUCGGUGCUUAUCCAAAGUGCUGUUUCGGCCAACUAGAAGGGCCGCGGCGGC
204
AAAAUAAACCAGUGAUGUUGGUGUCUAGAUACCAGCGACAAAAGUCGCCCUUGGCAGCUACGGACGUACAAAAUAAGUACGUCCU [MatMod 9 - Jieux - Same State - Theophylline A]
468
GGGAGUAGUGCGGCCGCCACUGAGAAAGAAGAAGAAUAUAGUGAUGUUAUAUAGGAAAGGAAGAAUAGGACCGGGCAUUAGAUUU [SSTRyptB.J]
229
GGCACGGUAACGCAACCGCCGUGCGCUUGGGAGGAUAUGUUUCGUGACAGAAGGCCCAGUGAUGUUGGGUCUGUUCAAAAGGACU [Ceenerus]
355
